TARGET_DESC: AAK1 (GST-Xa-hAAK1) (Homo sapiens (Human))
Sequence (Q2M2I8 whole entry): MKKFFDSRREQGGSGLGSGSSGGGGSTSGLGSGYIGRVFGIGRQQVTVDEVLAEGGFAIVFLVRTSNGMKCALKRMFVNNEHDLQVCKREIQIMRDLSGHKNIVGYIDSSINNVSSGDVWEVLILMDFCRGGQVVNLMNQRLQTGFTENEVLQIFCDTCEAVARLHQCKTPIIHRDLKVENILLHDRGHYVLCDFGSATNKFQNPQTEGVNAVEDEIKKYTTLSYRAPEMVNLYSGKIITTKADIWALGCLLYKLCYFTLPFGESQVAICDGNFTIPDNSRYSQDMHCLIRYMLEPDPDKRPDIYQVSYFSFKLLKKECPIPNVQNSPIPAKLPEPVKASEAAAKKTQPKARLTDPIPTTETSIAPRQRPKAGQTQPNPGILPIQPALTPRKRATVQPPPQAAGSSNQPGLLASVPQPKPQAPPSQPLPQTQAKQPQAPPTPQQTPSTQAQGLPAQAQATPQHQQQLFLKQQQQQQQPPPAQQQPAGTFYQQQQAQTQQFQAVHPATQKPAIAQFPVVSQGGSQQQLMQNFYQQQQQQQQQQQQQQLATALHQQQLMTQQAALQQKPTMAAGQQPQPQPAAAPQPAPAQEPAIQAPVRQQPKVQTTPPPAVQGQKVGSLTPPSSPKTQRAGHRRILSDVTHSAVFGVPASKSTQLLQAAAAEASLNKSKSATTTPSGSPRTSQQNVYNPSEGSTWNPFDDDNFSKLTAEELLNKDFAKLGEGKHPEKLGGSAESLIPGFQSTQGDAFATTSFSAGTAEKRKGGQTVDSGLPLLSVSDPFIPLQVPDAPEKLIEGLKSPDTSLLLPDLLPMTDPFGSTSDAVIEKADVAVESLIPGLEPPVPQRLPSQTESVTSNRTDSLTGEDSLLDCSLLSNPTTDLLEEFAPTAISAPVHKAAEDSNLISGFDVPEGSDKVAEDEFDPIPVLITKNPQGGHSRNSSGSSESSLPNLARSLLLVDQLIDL
ASSAY_METHOD_TEXT: AAK1 Kinase Assay
Assay type: biochemical
Property: IC50; scope: individual molecules

In the examples that follow, each entry is paired with its recorded IC50.
COC(=O)CCC(=O)Nc1ccc2c(c1)OCc1cnccc1-2
100 to 1200 nM
O=C(Nc1ccc2c(c1)OCc1cnccc1-2)C1CCCCC1
100 to 1200 nM
CC(=O)Nc1ccc2c(c1)OCc1cnccc1-2
100 to 1200 nM

In: Would you mind telling me what IC50 value was observed for N#CC1(C(=O)Nc2ccc3c(c2)OCc2cnccc2-3)CC1 ?
Out: 100 to 1200 nM

In: Would you mind telling me what IC50 value was observed for CC(C)(C)CC(=O)Nc1ccc2c(c1)OCc1cnccc1-2 ?
Out: 10 to 100 nM

In: Would you mind telling me what IC50 value was observed for CC(C)(C)C(=O)Nc1ccc2c(c1)OCc1cnccc1-2 ?
Out: 100 to 1200 nM

In: Would you mind telling me what IC50 value was observed for C#CCCC(=O)Nc1ccc2c(c1)OCc1cnccc1-2 ?
Out: 10 to 100 nM

In: Would you mind telling me what IC50 value was observed for N#CCC(=O)Nc1ccc2c(c1)OCc1cnccc1-2 ?
Out: 100 to 1200 nM

In: Would you mind telling me what IC50 value was observed for CC(C)CC(=O)Nc1ccc2c(c1)OCc1cnccc1-2 ?
Out: 10 to 100 nM

In: Would you mind telling me what IC50 value was observed for CC(C)C[C@@H](N)C(=O)Nc1ccc2c(c1)OC(C)(C)c1cnccc1-2 ?
Out: 10 to 100 nM

In: Would you mind telling me what IC50 value was observed for CCCCC(=O)Nc1cc2c(cc1Br)-c1ccncc1CO2 ?
Out: 10 to 100 nM

In: Would you mind telling me what IC50 value was observed for CC(C)C[C@@H](N)C(=O)Nc1ccc2c(c1)OCc1cnccc1-2 ?
Out: 1 to 10 nM

The measurements presented in this section are drawn from patent US9708337B2.
